Reference for the values: patent US20190144558A1

molecular target: T1, rhesus CD117 ectodomain (rhesus, UniProt F6V858 26-524); test: BLI (Octet Red96), IgG on anti-human Fc sensors, rhesus CD117 ectodomain at 33.3 and 11 nM, 1:1 fit
T1 construct: extracellular domain
So I've got a bunch of binders here, and I need their kon values.
Expressed in M⁻¹ s⁻¹, but write only the number.

What value of measured kon is listed for Antibody 57 (antibody, human IgG1, kappa, V domains shown, also called Ab57; HC-57/LC-57) VH: QVQLVQSGAEVKKPGSSVKVSCKASGGTFSLYAISWVRQAPGQGLEWMGGIIPHFGLANYAQKFQGRVTITADESTSTAYMELSSLRSEDTAVYYCARGGLDTDEFDLWGRGTLVTVSS VL: DIQMTQSPSSLSASVGDRVTITCRASQSINSYLNWYQQKPGKAPKLLIYAASSLQSGVPSRFSGSGSGTDFTLTISSLQPEDFATYYCQQGVSDITFGGGTKVEIKR ?
298000

Same read-out for Antibody 54 (antibody, human IgG1, kappa, V domains shown, also called Ab54; HC-54/LC-54) VH: QVQLVQSGAEVKKPGSSVKVSCKASGGTFSSYAISWVRQAPGQGLEWMGGIIPIFGTANYAQKFQGRVTITADESTSTAYMELSSLRSEDTAVYYCARGGLDTDEFDLWGRGTLVTVSS VL: DIQMTQSPSSLSASVGDRVTITCRASQSINSYLNWYQQKPGKAPKLLIYAASSLQSGVPSRFSGSGSGTDFTLTISSLQPEDFATYYCQQGVSDITFGGGTKVEIKR ?
304000

For Antibody 55 (antibody, human IgG1, kappa, V domains shown, also called Ab55; HC-55/LC-55) VH: QVQLVQSGAEVKKPGSSVKVSCKASGGTFRIYAISWVRQAPGQGLEWMGGIIPDFGVANYAQKFQGRVTITADESTSTAYMELSSLRSEDTAVYYCARGGLDTDEFDLWGRGTLVTVSS VL: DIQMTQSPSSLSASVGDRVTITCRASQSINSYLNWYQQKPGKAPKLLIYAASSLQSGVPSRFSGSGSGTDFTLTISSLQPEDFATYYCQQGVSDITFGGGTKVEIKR then?
315000
